So I've got a bunch of compounds here, and I need their IC50 values.
- System Tested: DNA dC->dU-editing enzyme APOBEC-3A (Homo sapiens, UniProt P31941)
- Sequence (P31941 whole entry): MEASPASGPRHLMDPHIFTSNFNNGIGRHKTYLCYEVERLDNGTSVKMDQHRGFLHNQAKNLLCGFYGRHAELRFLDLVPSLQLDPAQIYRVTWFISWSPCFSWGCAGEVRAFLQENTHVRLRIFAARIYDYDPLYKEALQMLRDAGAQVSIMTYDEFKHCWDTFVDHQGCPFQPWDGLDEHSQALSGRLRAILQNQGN
- Protocol Notes: Dose Response confirmation of small molecule APOBEC3A DNA Deaminase Inhibitors via a fluorescence-based single-stranded DNA deaminase assay. [Related pubchem assays (depositor defined):AID493011, AID493024]
- Type: functional
Active and inactive are the calls of the source. How the calls were made is not given here.

Write down the reported IC50 of O=[N+]([O-])c1ccc(C[n+]2cccc3ccccc32)cc1 , test system: DNA dC->dU-editing enzyme APOBEC-3A (Homo sapiens, UniProt P31941).
3.26 µM (active)

What measured IC50 is associated with COc1ccc(CCCc2nnc(SCC(=O)Nc3ccc(C)c(C)c3)o2)cc1 on DNA dC->dU-editing enzyme APOBEC-3A (Homo sapiens, UniProt P31941)?
2.18 µM (active)

// fetch DNA dC->dU-editing enzyme APOBEC-3A (Homo sapiens, UniProt P31941) IC50 for O=C(COC(=O)/C=C/c1ccco1)Nc1ncc(C(F)(F)F)cc1Cl
16.9 µM (active)

Which measured IC50 belongs to Cc1ccc(CCCOC(=O)C[N+]2(C)CCCCC2)cc1 , tested on DNA dC->dU-editing enzyme APOBEC-3A (Homo sapiens, UniProt P31941)?
2.57 µM (active)

# get_value(readout= IC50, system= DNA dC->dU-editing enzyme APOBEC-3A (Homo sapiens, UniProt P31941)) for Cc1ccc(S(=O)(=O)N(CC(=O)O)Cc2ccco2)cc1
16 µM (active)

Query the reported IC50 for DNA dC->dU-editing enzyme APOBEC-3A (Homo sapiens, UniProt P31941); item: CCOc1ccc(NC(=O)c2cc3ccccc3cc2O)cc1
12.9 µM (active)

Lookup: IC50 / DNA dC->dU-editing enzyme APOBEC-3A (Homo sapiens, UniProt P31941) / COc1ccc(/C=C(\NC(=O)c2ccccc2)C(=O)OC[C@@H]2CCC[N+]3(C)CCCCC23)cc1OC (some centres not stated)
2.2 µM (active)
